tested on: MV-4-11 (human, Acute Myeloid Leukemia cell line) cells; experiment: Cell growth inhibition assay, GI50 of MV-4-11; assay type: cell-based; conditions: Homo sapiens, MV4-11, 72 h, MV-4-11 cells
Hi! Just check whether GI50 is below 2 nM. Below gives Satisfied, equal or above gives Not satisfied.

>>> category_label("C=CCN1CC(=O)N2C(CN(Cc3cccc4c(C(=O)Nc5ccc(N)cc5)cn(C)c34)C(=O)[C@@H]2Cc2ccc(O)cc2)N1C(=O)NCc1ccccc1 (some centres unmarked)")
"Not satisfied"
>>> category_label("C=CCN1CC(=O)N2C(CN(Cc3cccc4c(C(=O)Nc5ccc(N6CCC7(CCN(CC)C7)C6)nc5)cn(C)c34)C(=O)[C@@H]2Cc2ccc(O)cc2)N1C(=O)NCc1ccccc1 (some centres unmarked)")
"Satisfied"
>>> category_label("C=CCN1CC(=O)N2[C@@H](Cc3ccc(O)cc3)C(=O)N(Cc3cccc4c(-c5ccc(C(=O)NN6C(C)CNCC6C)cc5)cn(C)c34)C[C@@H]2N1C(=O)NCc1ccccc1 (some centres unmarked)")
"Satisfied"
>>> category_label("C=CCN1CC(=O)N2[C@@H](Cc3ccc(O)cc3)C(=O)N(Cc3cccc4c(C(=O)N5CCC(C(=O)OCC)CC5)cn(C)c34)C[C@@H]2N1C(=O)NCc1ccccc1")
"Satisfied"
>>> category_label("C=CCN1CC(=O)N2C(Cc3ccc(O)cc3)C(=O)N(Cc3cccc4c(C(=O)Nc5ccc(NCC)nc5)cn(C)c34)CC2N1C(=O)NCc1ccccc1 (centres unmarked)")
"Satisfied"

Q: Just wondering, is GI50 of C=CCN1CC(=O)N2[C@@H](Cc3ccc(O)cc3)C(=O)N(Cc3cccc4c(-c5ccc(NC(=O)N6CCC(N(C)C)CC6)cc5)cn(C)c34)C[C@@H]2N1C(=O)NCc1ccccc1 below 2 nM?
Result: Satisfied

Q: # repeat for C=CCN1CC(=O)N2[C@@H](Cc3ccc(O)cc3)C(=O)N(Cc3cccc4c(-c5ccc(NC(=O)Nc6ccccc6)nc5)cn(C)c34)C[C@@H]2N1C(=O)NCc1ccccc1 [Compound D-85]
Result: Not satisfied

Q: # repeat for C=CCN1CC(=O)N2[C@@H](Cc3ccc(O)cc3)C(=O)N(Cc3cccc4c(C(=O)N5CCN(Cc6ccc(C)cc6)CC5)cn(C)c34)C[C@@H]2N1C(=O)NCc1ccccc1
Result: Not satisfied

Q: # repeat for C=CCN1CC(=O)N2[C@@H](Cc3ccc(O)cc3)C(=O)N(Cc3cccc4c(-c5ccc(NC(=O)NCC)nc5)cn(C)c34)C[C@@H]2N1C(=O)NCc1ccccc1
Result: Satisfied

Q: # repeat for C=CCN1CC(=O)N2[C@@H](Cc3ccc(O)cc3)C(=O)N(Cc3cccc4c(-c5ccc(C(=O)NCCN(C)C)cc5)cn(C)c34)C[C@@H]2N1C(=O)NCc1ccccc1
Result: Satisfied
